measured-target: COX1 (Prostaglandin G/H synthase 1) (Ovis aries)
Sequence (P05979 whole entry): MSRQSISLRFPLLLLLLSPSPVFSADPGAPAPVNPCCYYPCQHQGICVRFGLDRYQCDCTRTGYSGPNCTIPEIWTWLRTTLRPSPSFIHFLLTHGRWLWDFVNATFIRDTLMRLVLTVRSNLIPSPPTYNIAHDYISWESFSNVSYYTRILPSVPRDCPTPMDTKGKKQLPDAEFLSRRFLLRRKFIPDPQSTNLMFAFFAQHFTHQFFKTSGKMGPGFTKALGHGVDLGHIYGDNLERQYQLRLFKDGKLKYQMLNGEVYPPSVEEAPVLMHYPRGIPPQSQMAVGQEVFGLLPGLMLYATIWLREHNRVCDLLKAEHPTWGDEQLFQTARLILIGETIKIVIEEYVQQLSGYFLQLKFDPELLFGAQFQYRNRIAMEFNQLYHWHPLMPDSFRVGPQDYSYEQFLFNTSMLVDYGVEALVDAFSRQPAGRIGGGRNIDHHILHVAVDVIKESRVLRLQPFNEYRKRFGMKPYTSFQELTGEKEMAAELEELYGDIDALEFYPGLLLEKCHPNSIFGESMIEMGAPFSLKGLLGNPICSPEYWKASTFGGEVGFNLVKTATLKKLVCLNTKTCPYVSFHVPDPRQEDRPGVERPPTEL
assay-protocol: Inhibition of ovine COX1 assessed as reduction in PGF2alpha level at 100 uM using arachidonic acid as substrate preincubated for 10 mins followed by substrate addition by ELISA relative to control
run-conditions: sheep, ovine COX1 enzyme, probe arachidonic acid
readout-type: inhibition at 100 µM (%)
Quick reminder: number only, in %, skip the unit.

> print(dat)
                                   molecule          readout.type  number
1  Oc1ccc(/C=C/c2cc[n+](Cc3cccc(Cl)c3)cc2)cc1  inhibition at 100 µM    11.2

In: Determine from records and report inhibition at 100 µM for CCOc1cccc(/C=C/c2ccc([N+](=O)[O-])cc2[N+](=O)[O-])c1
Out: 15.4

In: Supply recorded inhibition at 100 µM for O=[N+]([O-])c1ccc(/C=C/c2ccc(OCc3ccccc3)cc2)cc1 here.
Out: 3.36
